- System: U2OS
- assay-method-text: Multiplex assay against U2OS
- Format: toxicity, cell-based
- stated-conditions: human, 12 h, 1 µM, compound concentration 1 uM, number of replicates 2

compound | unit-abbreviation | Population Pyknosed Nuclei (%)
CC1(C)C(=O)N([C@H]2CCc3c(O)cccc32)c2nc(Nc3cccc(CN4CCCC4)c3)ncc21 | % | 22
CCNc1ccc(-c2nn(-c3ccccc3C)c3c2C(C)Cc2nc(NC(=O)OC)sc2-3)cn1.O=C(O)C(F)(F)F (stereo not given) | % | 14
CS(=O)(=O)c1ccc(C(=O)Nc2cccc(COc3ccc(Br)cc3CN3CCC[C@H](O)C3)c2)c(Cl)c1.O=CO | % | 15
CS(=O)(=O)c1ccc(C(=O)Nc2cccc(COc3ccc(Br)cc3CN3CC[C@@H](O)C3)c2)c(Cl)c1.O=CO | % | 9
Cn1ncc(NC(=O)c2nc(-c3c(F)cccc3F)sc2N)c1N1CC[C@@H](N)[C@H](F)CC1 | % | 19

---

The entries below are paired with their reported Population Membrane Permeable-Phenotype (%).
- Test system: U2OS
- assay-method-text: Multiplex assay against U2OS
- Type: toxicity, cell-based
- stated-conditions: human, 48 h, 1 µM, compound concentration 1 uM, number of replicates 2
assay-readout: Population Membrane Permeable-Phenotype (%)

structure-as-smiles | unit-abbreviation | observed-measurement
COc1cc(Nc2cnc(C#N)c(O[C@H](C)CN(C)C)n2)ncc1-c1cnn(C)c1 | % | 2
CN[C@@H]1CC[C@@H](c2ccc(Cl)c(Cl)c2)c2ccccc21.Cl | % | 1
C[C@@H](OC[C@@]1(c2ccccc2)CC[C@]2(CCC(=O)N2)CN1)c1cc(C(F)(F)F)cc(C(F)(F)F)c1 | % | 1
COc1ccc(NC(=O)c2ccc(-c3ccc(-c4noc(C)n4)cc3C)cc2)cc1OCCN(C)C.Cl | % | 6
Cc1ccc2c(c1CCC(=O)O)CC[C@@H](NS(=O)(=O)c1ccc(Cl)cc1)C2 | % | 2

---

- Tested on: HEK-293T
- assay-method-text: Multiplex assay against HEK293T
- Assay type: toxicity, cell-based
- stated-conditions: human, 24 h, 10 µM, compound concentration 10 uM, number of replicates 2
assay-readout: Population Normal (%)

molecule | measured-target | assay-readout | observed-measurement
Br.Cc1cccc(C2CN(C)CCc3c2cc(O)c(O)c3Cl)c1 (stereo not given) | HEK-293T | Population Normal (%) | 92
CCN1CCN(Cc2ccc(C(=O)Nc3ccc(C)c(Oc4ccc5c(c4)CC(=O)N5)c3)cc2C(F)(F)F)CC1.Cl.Cl | HEK-293T | Population Normal (%) | 84
CC1(C)C(=O)N([C@H]2CCc3c(O)cccc32)c2nc(Nc3cccc(CN4CCCC4)c3)ncc21 | HEK-293T | Population Normal (%) | 78
COc1cccc(Cn2cc(C(=O)Nc3ccc(C)c(S(=O)(=O)N4CCOCC4)c3)c(-c3ccc(C)cc3)n2)c1 | HEK-293T | Population Normal (%) | 91
N=C(N)NCCC[C@H](NC(=O)COCC(c1ccccc1)c1ccccc1)C(=O)O.O=C(O)C(F)(F)F | HEK-293T | Population Normal (%) | 92

---

The entries below are paired with their reported Population Membrane Permeable-Phenotype (%).
- System: HEK-293T
- assay-method-text: Multiplex assay against HEK293T
- Type: toxicity, cell-based
- stated-conditions: human, 24 h, 1 µM, compound concentration 1 uM, number of replicates 2
assay-readout: Population Membrane Permeable-Phenotype (%)

molecule | measured-target | observed-measurement
CCn1ccc(Nc2ncc3c(n2)-c2c(nn(C)c2-c2ccc(-c4cnn(C)c4)cc2Cl)CC3)n1 | HEK-293T | 1
COc1cc(OC)cc(C(=O)NNC(=O)Nc2cccc3ccccc23)c1 | HEK-293T | 2
Cc1cccc(S(=O)(=O)N(C)[C@H](C)CCN2CCC(C)CC2)c1.Cl | HEK-293T | 4
COc1cc(Nc2cnc(C#N)c(O[C@H](C)CN(C)C)n2)ncc1-c1cnn(C)c1 | HEK-293T | 4
CCNc1ccc(-c2nn(-c3ccccc3C)c3c2C(C)Cc2nc(NC(=O)OC)sc2-3)cn1.O=C(O)C(F)(F)F (stereo not given) | HEK-293T | 0

---

- Test system: U2OS
- assay-method-text: Multiplex assay against U2OS
- Type: toxicity, cell-based
- stated-conditions: human, 12 h, 1 µM, compound concentration 1 uM, number of replicates 2
assay-readout: Population Hoechst High Intensity Objects (%)

compound | unit-abbreviation | observed-measurement
N=C(N)NCCC[C@H](NC(=O)COCC(c1ccccc1)c1ccccc1)C(=O)O.O=C(O)C(F)(F)F | % | 0
CN[C@@H]1CC[C@@H](c2ccc(Cl)c(Cl)c2)c2ccccc21.Cl | % | 0
CS(=O)(=O)c1ccc(C(=O)Nc2cccc(COc3ccc(Br)cc3CN3CC[C@H](O)C3)c2)cc1.O=CO | % | 0
COc1cc(OC)cc(C(=O)NNC(=O)Nc2cccc3ccccc23)c1 | % | 0
C=CC(=O)Nc1ccc2[nH]c(=O)n(C3CCN(Cc4ccc(-c5ccc6c(c5)NC(=O)CO6)cc4)CC3)c2c1 | % | 0
CCn1ccc(Nc2ncc3c(n2)-c2c(nn(C)c2-c2ccc(-c4cnn(C)c4)cc2Cl)CC3)n1 | % | 0
CS(=O)(=O)c1ccc(C(=O)Nc2cccc(COc3ccc(Br)cc3CN[C@H]3CCC[C@@H]3O)c2)c(Cl)c1.O=CO | % | 0
CS(=O)(=O)c1ccc(C(=O)Nc2cccc(COc3ccc(Br)cc3CN3CC[C@@H](O)C3)c2)c(Cl)c1.O=CO | % | 0
Cc1cc(NC(=O)c2cccc(NC(=O)/C=C/CN(C)C)c2)ccc1Nc1nccc(-c2cccnc2)n1 | % | 0
COc1ncc(-c2cc(-c3ncc(CN4C[C@@H](C)O[C@@H](C)C4)o3)c3cn[nH]c3c2)cc1NS(C)(=O)=O | % | 0
CC(C)N(CCCCOCC(=O)NS(C)(=O)=O)c1cnc(-c2ccccc2)c(-c2ccccc2)n1 | % | 0
OC(c1ccc(-c2ccc(CN3CCN(Cc4ccncc4)CC3)cc2)c(F)c1)(C(F)(F)F)C(F)(F)F | % | 0
CCc1cnn2c(NCc3ccc[n+]([O-])c3)cc(N3CCCCC3CCO)nc12 (centres undefined) | % | 0
CNC(=O)c1c(F)cccc1Nc1nc(Nc2cc3c(cc2OC)CCN3C(=O)CN(C)C)nc2[nH]ccc12 | % | 0
CCn1c(-c2nonc2N)nc2cncc(C(=O)N3CC[C@H](N)C3)c21.Cl | % | 0
Cc1cc(C2CCCNC2)ccc1Nc1ncc(Br)c(NCc2cccc3c2C(C)(C)C(=O)N3)n1 (centres undefined) | % | 0
CS(=O)(=O)c1ccc(NC(=O)c2cccc(COc3ccc(Br)cc3CNCCO)c2)c(Cl)c1.O=CO | % | 0
Cc1onc(-c2ccccc2Cl)c1C(=O)N(C)c1ccc(Cl)cc1 | % | 0
CCCN(CCc1cccs1)[C@H]1CCc2c(O)cccc2C1 | % | 0
Cc1ccc2c(c1CCC(=O)O)CC[C@@H](NS(=O)(=O)c1ccc(Cl)cc1)C2 | % | 0
CN(C)C/C=C/C(=O)Nc1ccc(C(=O)Nc2cccc(Nc3ncc(Cl)c(-c4c[nH]c5ccccc45)n3)c2)cc1 | % | 0
COc1cc(Nc2cnc(C#N)c(O[C@H](C)CN(C)C)n2)ncc1-c1cnn(C)c1 | % | 0
CS(=O)(=O)c1ccc(C(=O)Nc2cccc(COc3ccc(Br)cc3CN3CCC[C@H](O)C3)c2)c(Cl)c1.O=CO | % | 0
Cn1cc(-n2cnc3c(NCc4nc5cc(Cl)c(Cl)cc5[nH]4)nc(N4CCOCC4)nc32)cn1 | % | 0
CC1=C(C)C(=O)C(C(C)(C)CC(=O)N(CCCCSC[C@H]2O[C@@H](n3cnc4c(N)ncnc43)[C@H](O)[C@@H]2O)Cc2cccc(-c3ccc(Cl)cc3)c2)=C(C)C1=O | % | 0
CN1CCc2cc(Cl)c(O)cc2[C@@H](c2ccccc2)C1.Cl | % | 0
Br.Cc1cccc(C2CN(C)CCc3c2cc(O)c(O)c3Cl)c1 (centres undefined) | % | 0
COc1ccc(-c2cc3c(C)nc(N)nc3n([C@H]3CC[C@H](OCCO)CC3)c2=O)cn1 | % | 0
COc1cccc(Cn2cc(C(=O)Nc3ccc(C)c(S(=O)(=O)N4CCOCC4)c3)c(-c3ccc(C)cc3)n2)c1 | % | 0
Cn1ncc(NC(=O)c2nc(-c3c(F)cccc3F)sc2N)c1N1CC[C@@H](N)[C@H](F)CC1 | % | 0
CN(C)[C@H]1CC[C@H](Nc2ncc3ncnc(Nc4ccc(F)c(Cl)c4)c3n2)CC1 | % | 0
COc1cc(C(=O)NC2CCN(C)CC2)ccc1Nc1ncc(C(F)(F)F)c(NCc2ccc(C)cc2N(C)S(C)(=O)=O)n1.O=CO.O=CO | % | 0
COc1cc(Br)c(S(=O)(=O)Nc2ccc(C(F)(F)F)c(O[C@@H]3CCN(C)C3)c2)cc1OC | % | 0
CN1CCCN(C(=O)c2cccc(-c3ccc(/C=C4/C(=O)Nc5ccc(Cl)cc54)o3)c2)CC1 | % | 0
